Data provenance: patent US20130150330A1

- assayText: Solubility in water, increasing amounts added to 1 mL deionized water
- Type: physicochemical
- measurementSetup: decoquinate without the prodrug moiety, comparison
recordedEndpoint: solubility

// query Recorded solubility of CCCCCCCCCCOc1cc2c(O)c(C(=O)OCC)cnc2cc1OCC [decoquinate] , please.
// result < 50 µg/mL
